Hi there, I'd appreciate the recorded pIC50 for every entry that follows.
STUDY_TARGET: MMP2 (Homo sapiens, UniProt P08253)
ASSAY_REMARKS: MMP-2 colorimetric inhibition assay (Enzo kit BML-AK408)
Type: biochemical
MEASUREMENT_SETUP: thiopeptide substrate, absorbance 415 nm; read-out: MMP 2 IC50 class
pIC50: −log10 of the molar value.

Find pIC50 (MMP2 (Homo sapiens, UniProt P08253)) for the entry O=C(NO)[C@H]1[C@@H]2CC[C@H](CN1S(=O)(=O)c1ccc(Oc3ccc(F)cc3)nc1)N2CC(=O)N1CCCC1 > 7.30

Here is the next compound: CC(=O)N1[C@@H]2CC[C@H]1[C@H](C(=O)NO)N(S(=O)(=O)c1ccc(Oc3ccc(OC(F)(F)F)cc3)nc1)C2 > 7.30

Here is the next compound: COCCOC(=O)N1[C@@H]2CC[C@H]1[C@H](C(=O)NO)N(S(=O)(=O)c1ccc(Oc3nc4ccc(Cl)cc4o3)c(F)c1)C2 5.00 to 6.00

Here is the next compound: COCCOC(=O)N1[C@@H]2CC[C@H]1[C@H](C(=O)NO)N(S(=O)(=O)c1ccc(Oc3ccc(OCC(F)(F)F)cc3)nc1)C2 > 7.30

Here is the next compound: CCC(=O)N1[C@@H]2CC[C@H]1[C@H](C(=O)NO)N(S(=O)(=O)c1ccc(Oc3ccc(OC(C)C)cc3)nc1)C2 > 7.30

Here is the next compound: COCCOC(=O)N1[C@@H]2CC[C@H]1[C@H](C(=O)NO)N(S(=O)(=O)c1ccc(Oc3nc4ccccc4o3)nc1)C2 < 5.00

----------
Hi there, I'd appreciate the recorded pIC50 for every entry that follows.
STUDY_TARGET: MMP2 (Homo sapiens)
Sequence (P08253 110-660): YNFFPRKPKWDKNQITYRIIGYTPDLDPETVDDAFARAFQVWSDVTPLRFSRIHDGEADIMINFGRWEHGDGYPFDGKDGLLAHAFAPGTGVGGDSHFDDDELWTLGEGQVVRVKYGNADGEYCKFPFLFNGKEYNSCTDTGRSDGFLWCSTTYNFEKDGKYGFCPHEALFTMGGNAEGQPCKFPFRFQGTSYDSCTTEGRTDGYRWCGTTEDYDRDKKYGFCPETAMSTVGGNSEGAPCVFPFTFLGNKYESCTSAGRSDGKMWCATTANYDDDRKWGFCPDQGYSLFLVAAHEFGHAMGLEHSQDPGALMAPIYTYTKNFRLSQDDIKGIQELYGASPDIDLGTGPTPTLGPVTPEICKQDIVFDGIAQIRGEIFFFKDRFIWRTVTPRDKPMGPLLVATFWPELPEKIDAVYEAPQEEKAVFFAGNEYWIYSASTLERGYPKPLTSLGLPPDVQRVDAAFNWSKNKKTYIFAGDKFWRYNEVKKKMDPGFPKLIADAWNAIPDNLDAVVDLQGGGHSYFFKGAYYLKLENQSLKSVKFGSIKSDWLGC
ASSAY_REMARKS: MMP-2 colorimetric inhibition assay (Enzo kit BML-AK408)
Assay type: biochemical
MEASUREMENT_SETUP: thiopeptide substrate, absorbance 415 nm; read-out: MMP 2 IC50 class
pIC50: −log10 of the molar value.

# input compound: CCC(=O)N1[C@@H]2CC[C@H]1[C@H](C(=O)NO)N(S(=O)(=O)c1ccc(Oc3ccc(OC(F)(F)F)cc3)nc1)C2 ; wanted: its pIC50 > 7.30

Here is the next compound: COCCOC(=O)N1[C@@H]2CC[C@H]1[C@H](C(=O)NO)N(S(=O)(=O)c1ccc(Oc3cnn(-c4ccc(F)cc4)c3)nc1)C2 > 7.30

Here is the next compound: COc1ccc(Oc2ccc(S(=O)(=O)N3C[C@H]4CC[C@@H]([C@@H]3C(=O)NO)N4C(=O)N3CCOCC3)cn2)cc1F > 7.30

Here is the next compound: COCCOC(=O)N1[C@@H]2CC[C@H]1[C@H](C(=O)NO)N(S(=O)(=O)c1ccc(OC3CCC(C)(C)CC3)nc1)C2 6.00 to 7.30

Here is the next compound: COCCOC(=O)N1[C@@H]2CC[C@H]1[C@H](C(=O)NO)N(S(=O)(=O)c1ccc(Oc3ccc(OC)cc3)nc1)C2 > 7.30

Here is the next compound: COCCOC(=O)N1[C@@H]2CC[C@H]1[C@H](C(=O)NO)N(S(=O)(=O)c1ccc(-c3cccc(F)c3)nc1)C2 6.00 to 7.30

Here is the next compound: CC(=O)N1[C@@H]2CC[C@H]1[C@H](C(=O)NO)N(S(=O)(=O)c1ccc(Oc3ccc(F)cc3)nc1)C2 > 7.30

Here is the next compound: COCCOC(=O)N1[C@@H]2CC[C@H]1[C@H](C(=O)NO)N(S(=O)(=O)N1CCN(Cc3ccc(OC)cc3)CC1)C2 6.00 to 7.30

Here is the next compound: COCCOC(=O)N1[C@@H]2CC[C@H]1[C@H](C(=O)NO)N(S(=O)(=O)c1ccc(Oc3ccc(Cl)cc3)nc1)C2 > 7.30

Here is the next compound: CC(C)(C)C(=O)N1[C@@H]2CC[C@H]1[C@H](C(=O)NO)N(S(=O)(=O)c1ccc(Oc3ccc(OC(F)(F)F)cc3)nc1)C2 > 7.30

Here is the next compound: COCCOC(=O)N1[C@@H]2CC[C@H]1[C@H](C(=O)NO)N(S(=O)(=O)c1ccc(Oc3ccc(C)cc3)nc1)C2 > 7.30

Here is the next compound: COCCOC(=O)N1[C@H]2CC[C@@H]1[C@@H](C(=O)NO)N(S(=O)(=O)c1cc(F)c(Oc3ccc(Cl)cc3)c(F)c1)C2 5.00 to 6.00

Here is the next compound: COCCOC(=O)N1[C@@H]2CC[C@H]1[C@H](C(=O)NO)N(S(=O)(=O)c1cnc(Oc3ccc(F)cc3)c(F)c1)C2 > 7.30

----------
STUDY_TARGET: MMP13 (Homo sapiens, UniProt P45452)
Construct: purchased Enzo Life Sciences, Inc. BML-AK412
ASSAY_REMARKS: MMP-13 colorimetric inhibition assay (Enzo kit BML-AK412)
Format: biochemical
MEASUREMENT_SETUP: thiopeptide substrate, absorbance 415 nm; read-out: MMP 13 IC50 class
pIC50: −log10 of the molar value.
MEASURED_QUANTITY: pIC50

# input molecule: COCCOC(=O)N1[C@@H]2CC[C@H]1[C@H](C(=O)NO)N(S(=O)(=O)c1ccc(Oc3ccc(Cl)c(F)c3)nc1)C2 [Example 9] ; wanted: its pIC50 > 7.30

Here is the next molecule: COCCOC(=O)N1[C@@H]2CC[C@H]1[C@H](C(=O)NO)N(S(=O)(=O)c1ccc(Oc3ccc(F)cc3)nc1)C2 [Example 1] > 7.30

Here is the next molecule: COCCOC(=O)N1[C@@H]2CC[C@H]1[C@H](C(=O)NO)N(S(=O)(=O)c1ccc(OC3CCN(C(C)C)CC3)nc1)C2 [Example 75] 6.00 to 7.30

Here is the next molecule: CC(C)OC(=O)N1[C@@H]2CC[C@H]1[C@H](C(=O)NO)N(S(=O)(=O)c1ccc(Oc3ccc(F)cc3)nc1)C2 [Example 67] > 7.30

Here is the next molecule: COCCOC(=O)N1[C@@H]2CC[C@H]1[C@H](C(=O)NO)N(S(=O)(=O)c1cc(F)c(Oc3cnn(C)c3)c(F)c1)C2 [Example 42] 6.00 to 7.30

Here is the next molecule: CC(=O)N1[C@@H]2CC[C@H]1[C@H](C(=O)NO)N(S(=O)(=O)c1ccc(Oc3ccc(OCC(F)(F)F)cc3)nc1)C2 [Example 62] > 7.30

----------
STUDY_TARGET: MMP13 (Homo sapiens, UniProt P45452)
Construct: purchased Enzo Life Sciences, Inc. BML-AK412
ASSAY_REMARKS: MMP-13 colorimetric inhibition assay (Enzo kit BML-AK412)
Assay type: biochemical
MEASUREMENT_SETUP: thiopeptide substrate, absorbance 415 nm; read-out: MMP 13 IC50 class
MEASURED_QUANTITY: IC50

# input molecule: O=C(NO)[C@H]1[C@@H]2CC[C@H](CN1S(=O)(=O)c1ccc(Oc3ccc(F)cc3)nc1)N2CC(=O)N1CCCC1 ; wanted: its IC50 < 50 nM

Here is the next molecule: COCCOC(=O)N1[C@@H]2CC[C@H]1[C@H](C(=O)NO)N(S(=O)(=O)c1ccc(OC3CCC(C)(C)CC3)nc1)C2 50 to 1000 nM

Here is the next molecule: CC(C)Oc1ccc(Oc2ccc(S(=O)(=O)N3C[C@H]4CC[C@@H]([C@@H]3C(=O)NO)N4C(=O)N3CCOCC3)cn2)cc1 < 50 nM

Here is the next molecule: COCCOC(=O)N1[C@@H]2CC[C@H]1[C@H](C(=O)NO)N(S(=O)(=O)N1CCN(Cc3ccc(Cl)cc3)CC1)C2 50 to 1000 nM

Here is the next molecule: COCCOC(=O)N1[C@@H]2CC[C@H]1[C@H](C(=O)NO)N(S(=O)(=O)c1ccc(Oc3ccc(OC)c(F)c3)nc1)C2 < 50 nM

Here is the next molecule: CCN1CCC(Oc2ccc(S(=O)(=O)N3C[C@H]4CC[C@@H]([C@@H]3C(=O)NO)N4C(=O)OCCOC)cn2)CC1 > 10000 nM

Here is the next molecule: CC(=O)N1[C@@H]2CC[C@H]1[C@H](C(=O)NO)N(S(=O)(=O)c1ccc(Oc3ccc(OC(F)(F)F)cc3)nc1)C2 < 50 nM

Here is the next molecule: COCCOC(=O)N1[C@@H]2CC[C@H]1[C@H](C(=O)NO)N(S(=O)(=O)c1ccc(Oc3nc4ccc(F)cc4o3)c(F)c1)C2 1000 to 10000 nM

Here is the next molecule: COCCOC(=O)N1[C@@H]2CC[C@H]1[C@H](C(=O)NO)N(S(=O)(=O)c1ccc(Oc3cnn(C)c3)nc1)C2 < 50 nM

Here is the next molecule: COCCOC(=O)N1[C@@H]2CC[C@H]1[C@H](C(=O)NO)N(S(=O)(=O)N1CCC(Oc3ccc(C(F)(F)F)cc3)CC1)C2 < 50 nM

Here is the next molecule: COCCOC(=O)N1[C@@H]2CC[C@H]1[C@H](C(=O)NO)N(S(=O)(=O)N1CCN(Cc3ccc(OC)cc3)CC1)C2 1000 to 10000 nM

Here is the next molecule: COCCOC(=O)N1[C@@H]2CC[C@H]1[C@H](C(=O)NO)N(S(=O)(=O)c1ccc(Oc3ccc(F)cc3F)nc1)C2 < 50 nM

Here is the next molecule: COCCOC(=O)N1[C@@H]2CC[C@H]1[C@H](C(=O)NO)N(S(=O)(=O)N1CCC(Oc3ccc(F)cc3)CC1)C2 < 50 nM

Here is the next molecule: CCC(=O)N1[C@@H]2CC[C@H]1[C@H](C(=O)NO)N(S(=O)(=O)c1ccc(Oc3ccc(OC(C)C)cc3)nc1)C2 < 50 nM

Here is the next molecule: COCCOC(=O)N1[C@@H]2CC[C@H]1[C@H](C(=O)NO)N(S(=O)(=O)c1ccc(Oc3nc4cc(F)ccc4o3)c(F)c1)C2 1000 to 10000 nM

Here is the next molecule: CCn1cc(Oc2ccc(S(=O)(=O)N3C[C@H]4CC[C@@H]([C@@H]3C(=O)NO)N4C(=O)OCCOC)cn2)cn1 < 50 nM

Here is the next molecule: COCCOC(=O)N1[C@@H]2CC[C@H]1[C@H](C(=O)NO)N(S(=O)(=O)c1ccc(Oc3nc4ccc(Cl)cc4o3)c(F)c1)C2 1000 to 10000 nM

Here is the next molecule: COCCOC(=O)N1[C@@H]2CC[C@H]1[C@H](C(=O)NO)N(S(=O)(=O)c1ccc(Oc3cnn(C(C)C)c3)nc1)C2 50 to 1000 nM

Here is the next molecule: CC(C)Oc1ccc(Oc2ccc(S(=O)(=O)N3C[C@H]4CC[C@@H]([C@@H]3C(=O)NO)N4C(=O)C(C)C)cn2)cc1 < 50 nM

Here is the next molecule: COCCOC(=O)N1[C@@H]2CC[C@H]1[C@H](C(=O)NO)N(S(=O)(=O)c1ccc(Oc3cnn(-c4ccc(F)cc4)c3)nc1)C2 < 50 nM

Here is the next molecule: COCCOC(=O)N1[C@@H]2CC[C@H]1[C@H](C(=O)NO)N(S(=O)(=O)N1CCC(Oc3ccnc(C(F)(F)F)c3)CC1)C2 50 to 1000 nM

Here is the next molecule: COCCOC(=O)N1[C@@H]2CC[C@H]1[C@H](C(=O)NO)N(S(=O)(=O)c1ccc(Oc3ccc(OC(F)F)cc3)nc1)C2 < 50 nM

Here is the next molecule: COCCOC(=O)N1[C@@H]2CC[C@H]1[C@H](C(=O)NO)N(S(=O)(=O)c1ccc(Oc3cncc(Cl)c3)nc1)C2 50 to 1000 nM

Here is the next molecule: COCCOC(=O)N1[C@@H]2CC[C@H]1[C@H](C(=O)NO)N(S(=O)(=O)c1ccc(Oc3nc4cc(Cl)ccc4o3)c(F)c1)C2 > 10000 nM

Here is the next molecule: COCCOC(=O)N1[C@@H]2CC[C@H]1[C@H](C(=O)NO)N(S(=O)(=O)c1ccc(Oc3ccc(F)cc3)cn1)C2 < 50 nM

Here is the next molecule: COCCOC(=O)N1[C@H]2CC[C@@H]1[C@@H](C(=O)NO)N(S(=O)(=O)c1cc(F)c(Oc3ccc(Cl)cc3)c(F)c1)C2 1000 to 10000 nM
